experiment: Agilent ZORBAX 300 SB-C18, 150 × 1 mm, 3.5 µm; A: water + 0.01% heptafluorobutyric acid; B: acetonitrile + 0.01% heptafluorobutyric acid; gradient (min/%B) 0/0 100/90; conditions: stereoisomer not certain
Recorded Metric: LC retention time (min)

# annotated cases, reported LC retention time shown
CCN(Cc1ccncc1)C(=S)NCCc1ccccc1: 10.2
CCCCCCCCCCCCCN: 14
C[n+]1cccc(C(N)=O)c1: 3.76
OCc1ccc2cc[nH]c2c1: 8.46
Cc1ccncc1C: 6.82
O=c1[nH][nH]c(=O)n1-c1ccc2c(c1)OCO2: 6.9
Cc1ccc(C=Cc2nnc(-c3ccccc3C)o2)cc1: 18.1
CC(=O)Nc1cc(NC(C)=O)nc(NC(C)=O)n1: 7.21
CC(=O)C=C(N)c1ccccc1: 10.4
S=C(Nc1cccnc1)N(CCc1ccccc1)Cc1ccccc1: 12.8

(1) CC(=O)Nc1cc(=O)[nH]c(C)n1
(2) O=C(C=Cc1ccco1)c1ccccc1
(3) CNC(=O)c1cc2c(n(-c3ccccc3)c1=O)CCCC2=O
// query List these items ordered by LC retention time, big to small. Provide the labels, sequenced as the question asks.
// result 2, 3, 1
